Data provenance: patent US20130296258A1

biological target: T1, Recombinant human Glypican-3 (human, UniProt P51654 25-559, limits assumed, randomly biotinylated via Lysine residues (EZ-Link Sulfo-NHS-LC-LC-Biotin) where captured on Neutravidin; not biotinylated where used as competitor in solution); test: SPR (Biacore T100), Glypican-3 amine-coupled to a CM5 chip, mutein as analyte, evaluated conc 40/120 nM, 1:1 model
T1 construct: Bought protein; The biotinylated and the non-biotinylated preparation are written as one molecule; also called GPC3; GPC-3
T1 sequence (P51654 25-559 limits assumed): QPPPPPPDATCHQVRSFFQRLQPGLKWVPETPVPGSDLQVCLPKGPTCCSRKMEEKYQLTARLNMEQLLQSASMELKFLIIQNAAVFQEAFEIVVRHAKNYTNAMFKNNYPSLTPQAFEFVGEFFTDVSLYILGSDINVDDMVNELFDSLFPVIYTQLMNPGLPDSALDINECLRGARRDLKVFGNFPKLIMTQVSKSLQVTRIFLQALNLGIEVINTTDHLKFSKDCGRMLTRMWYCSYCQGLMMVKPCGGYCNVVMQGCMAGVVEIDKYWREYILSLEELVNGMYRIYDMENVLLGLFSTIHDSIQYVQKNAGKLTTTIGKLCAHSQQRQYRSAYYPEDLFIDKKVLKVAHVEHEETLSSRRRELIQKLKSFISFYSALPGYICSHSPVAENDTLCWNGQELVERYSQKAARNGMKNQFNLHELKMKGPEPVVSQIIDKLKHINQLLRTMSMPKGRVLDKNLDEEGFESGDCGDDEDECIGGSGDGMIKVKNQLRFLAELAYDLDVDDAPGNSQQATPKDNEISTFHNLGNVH
result.type: koff (s⁻¹)
// note: answer is a bare numeric in s⁻¹

Inquiry: # get_value(readout='koff', item= PIE-G3E (designed binder, C-terminal Strep-tag II; also called Lcn2 mutein; not shown: C-terminal Strep-tag II) QDSTSDLIPAPPLSKVPLQQNFQDNQFHGKWYVVGSAGNHRLREDKDPRKMHATIYELKEDKSYNVTNVTFREKKCHYSIGTFVPGSQPGEFTLGKIKSNPGMTSFLVRVVSTNYNQHAMVFFKKVHQNREQFNITLYGRTKELTSELKENFIRFSKSLGLPENHIVFPVPIDQCIDGSAWSHPQFEK )
Reply text: 0.00178

More entries:
Inquiry: Quick one: koff for PIE-G3D (designed binder, C-terminal Strep-tag II; also called Lcn2 mutein; not shown: C-terminal Strep-tag II) QDSTSDLIPAPPLSKVPLQQNFQDNQFHGKWYVVGMAGNARLREDKDPVKMTATIYELKEDKSYNVTAVQFRLKKCQYGITTFVPGSQPGEFTLGDIKSIPGLTSMLVRVVSTNYNQHAMVFFKRVRQNREFFDITLYGRTKELTSELKENFIRFSKSLGLPENHIVFPVPIDQCIDGSAWSHPQFEK ?
Reply text: 0.00109

Inquiry: # repeat for PIE-G3F (designed binder, C-terminal Strep-tag II; also called Lcn2 mutein; not shown: C-terminal Strep-tag II) QDSTSDLIPAPPLSKVPLQQNFQDNQFHGKWYVVGIAGNGQLREDKDPWKMSATIYELKEDKSYNVTSVRFRLKKCSYWIYTFVPGSQPGEFTLGGIKSNPGDTSNLVRVVSTNYNQHAMVFFKYVIQNREWFIITLYGRTKELTSELKENFIRFSKSLGLPENHIVFPVPIDQCIDGSAWSHPQFEK
Reply text: 0.00128

Inquiry: Record: PIE-G3C (designed binder, C-terminal Strep-tag II; also called Lcn2 mutein; not shown: C-terminal Strep-tag II) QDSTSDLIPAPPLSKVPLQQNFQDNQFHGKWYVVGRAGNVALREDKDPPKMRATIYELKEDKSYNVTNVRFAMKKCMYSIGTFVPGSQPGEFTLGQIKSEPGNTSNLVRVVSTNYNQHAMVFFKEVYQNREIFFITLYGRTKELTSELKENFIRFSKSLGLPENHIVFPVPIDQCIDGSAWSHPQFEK
Reply text: 0.00238

Inquiry: Another binder: PIE-G3B (designed binder, C-terminal Strep-tag II; also called Lcn2 mutein; not shown: C-terminal Strep-tag II) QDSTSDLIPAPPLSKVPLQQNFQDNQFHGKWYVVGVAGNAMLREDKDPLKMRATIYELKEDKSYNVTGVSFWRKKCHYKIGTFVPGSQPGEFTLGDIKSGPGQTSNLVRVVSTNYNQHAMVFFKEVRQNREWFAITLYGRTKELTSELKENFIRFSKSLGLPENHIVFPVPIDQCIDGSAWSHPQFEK
Reply text: 0.000242

Inquiry: Entry to check: PIE-G3G (designed binder, C-terminal Strep-tag II; also called Lcn2 mutein; not shown: C-terminal Strep-tag II) QDSTSDLIPAPPLSKVPLQQNFQDNQFHGKWYVVGMAGNASLREDKDPRKMNATIYELKEDKSYNVTKVRFWHKKCYYSITTFVPGSQPGEFTLGDIKSYPGWTSYLVRVVSTNYNQHAMVFFKGVRQNREWFSITLYGRTKELTSELKENFIRFSKSLGLPENHIVFPVPIDQCIDGSAWSHPQFEK
Reply text: 0.000723

Inquiry: Now give it for PIE-G3A (designed binder, Made in E. coli from phNGAL98 with a C-terminal Strep-tag II; also called Lcn2 mutein; not shown: C-terminal Strep-tag II) QDSTSDLIPAPPLSKVPLQQNFQDNQFHGKWYVVGIAGNWILREDKDPPKMRATIYELKEDKSYNVTRVRFDEKKCGYGIATFVPGSQPGEFTLGVIKSRPGITSDLVRVVSTNYNQHAMVFFKFVKQNREYFGITLYGRTKELTSELKENFIRFSKSLGLPENHIVFPVPIDQCIDGSAWSHPQFEK too.
Reply text: 0.000603
